Exercise: state measured phosphorylation enrichment for each of the sequences provided.
Tested System: FGFR1 (UniProt P11362)
Sequence (P11362 whole entry, looked up): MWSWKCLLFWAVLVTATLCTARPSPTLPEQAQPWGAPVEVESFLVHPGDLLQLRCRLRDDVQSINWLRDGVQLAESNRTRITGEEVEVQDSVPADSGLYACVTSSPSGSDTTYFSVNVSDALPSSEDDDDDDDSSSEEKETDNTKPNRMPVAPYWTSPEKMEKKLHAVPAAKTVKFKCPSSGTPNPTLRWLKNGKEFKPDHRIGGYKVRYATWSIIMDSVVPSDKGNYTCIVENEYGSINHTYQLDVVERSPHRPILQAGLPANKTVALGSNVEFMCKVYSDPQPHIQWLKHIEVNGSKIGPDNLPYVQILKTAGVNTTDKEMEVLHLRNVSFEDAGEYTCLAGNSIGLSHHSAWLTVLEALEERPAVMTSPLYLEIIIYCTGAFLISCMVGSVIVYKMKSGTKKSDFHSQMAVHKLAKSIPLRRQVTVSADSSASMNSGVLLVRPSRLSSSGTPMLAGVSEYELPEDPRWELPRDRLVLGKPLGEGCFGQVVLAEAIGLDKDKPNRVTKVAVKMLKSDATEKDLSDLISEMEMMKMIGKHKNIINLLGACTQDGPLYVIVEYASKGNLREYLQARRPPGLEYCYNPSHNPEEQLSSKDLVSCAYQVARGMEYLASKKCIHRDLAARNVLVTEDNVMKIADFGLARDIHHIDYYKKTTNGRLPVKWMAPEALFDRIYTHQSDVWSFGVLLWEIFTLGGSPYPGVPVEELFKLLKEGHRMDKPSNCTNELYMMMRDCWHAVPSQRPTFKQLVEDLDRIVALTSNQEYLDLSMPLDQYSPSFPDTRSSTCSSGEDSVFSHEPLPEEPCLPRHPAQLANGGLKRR
Assay Protocol: phosphorylation enrichment, bacterial display (enrichment ratio); higher = better substrate or ligand; peptides without Tyr show the background;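 note: 11-residue human phosphosite peptides and single-mutation variants displayed on the E. coli surface, counted by deep sequencing, each peptide's frequency after selection divided by its frequency in the unselected input library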;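 note: frequency after pTyr selection over input frequency; kinase dosed for 20-30% of maximal phosphorylation in three min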
One number for each entry.

Guide cases for phosphorylation enrichment, answers given:
MIHSAYALGGL [CPS1_Y590_R587H] = 0.388
EESREYDRLFE [PIK3R1_Y463_K459E_YF] = 0.609
EKLQKYYRKNP [EHHADH_Y682_Q685K] = 0.45
VDSAHYKLLET [DTX3L_Y385] = 0.485

Please look at the items below and tell me phosphorylation enrichment for each one, in order.
1. VDTLWYKFLKR [EPM2A_Y86_F84L]
2. RTLTHYKSAVK [ASNS_Y555]
3. SSREGYVSHHN [FAM83B_Y433]
4. KRYRIYHLAIS [BRCA2_Y3009_T3013I]

[0.414, 0.35, 0.443, 0.599]

* * *

Tested System: Hck (UniProt P08631)
Sequence (P08631 whole entry, looked up): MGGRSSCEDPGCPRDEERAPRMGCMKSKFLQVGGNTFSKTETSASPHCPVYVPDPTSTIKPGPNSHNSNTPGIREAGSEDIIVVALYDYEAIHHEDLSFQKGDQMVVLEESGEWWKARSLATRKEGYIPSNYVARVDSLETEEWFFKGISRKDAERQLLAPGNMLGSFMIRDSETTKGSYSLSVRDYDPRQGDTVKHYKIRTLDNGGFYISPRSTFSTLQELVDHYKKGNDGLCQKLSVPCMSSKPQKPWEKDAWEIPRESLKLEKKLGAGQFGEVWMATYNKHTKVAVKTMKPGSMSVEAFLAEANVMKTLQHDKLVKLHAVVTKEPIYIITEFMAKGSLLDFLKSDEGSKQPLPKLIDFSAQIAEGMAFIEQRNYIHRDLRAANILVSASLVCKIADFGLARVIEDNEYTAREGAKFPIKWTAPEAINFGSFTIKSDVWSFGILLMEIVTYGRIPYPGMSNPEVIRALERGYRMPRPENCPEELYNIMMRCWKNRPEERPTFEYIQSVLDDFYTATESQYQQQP
Assay Protocol: phosphorylation enrichment, bacterial display (enrichment ratio); higher = better substrate or ligand; peptides without Tyr show the background
Consider the following sequences; for each one, report its phosphorylation enrichment.
Answers are plain numbers.

Look over these answered cases.
KDQGIYEDYVE [MYL6_Y86_T85I] = 1.06
YKIYRYTLNDN [FN1_Y1975_L1974R] = 0.573
QRCYVYYYSYL [PTEN_Y176_R173C] = 1.35
IKGNMYFENSF [EGFR_Y112_R108K_YF] = 0.397

Each sequence below has a reported value. Please supply its phosphorylation enrichment.
1. SLIDMYSEVLA [OPA1_Y268_D273A]
2. ESKKHYGFSLF [ANXA3_Y295_F291S_YF]
3. STSFDYCRVPM [BST2_Y8_YF]
4. ETALHYIHDGI [GATD3A_Y250]

1. 0.873
2. 0.528
3. 1.57
4. 0.432

Hello, I would appreciate it if you could give phosphorylation enrichment for each entry below.
1. ENEGTYVCIAA [ADAMTSL3_Y1365_T1370A]
2. VIESSYQVAKA [CPT1B_Y534]
3. RASDYYSQQMA [GBP6_Y334_A331S]

1: 1.21; 2: 0.577; 3: 0.611

Report phosphorylation enrichment for each item below.
1. KDDEKYLDVIR [MTM1_Y260]
2. SEPDLYFDPRG [PKP1_Y160_C161Y_YF]
3. TDLAYYLVREG [ASL_Y376_K380E]

0.501
9.33
0.955

* * *

Tested System: Hck (UniProt P08631)
Assay Protocol: phosphorylation enrichment, bacterial display (enrichment ratio); higher = better substrate or ligand; peptides without Tyr show the background
Recorded Endpoint: phosphorylation enrichment

GVLDIYGFEIL [MYO1A_Y382] = 1.59

Batch: phosphorylation enrichment for all items listed.
1. ENGPFYTSFPP [GDAP2_Y488_YF]
2. TLEKYYFAFPG [SLC1A1_Y51_F50Y]
3. PGVDRYSLGTS [C5orf42_Y1451]
4. DGTGRYLCNAC [GATA5_Y208_H207R]
5. DTKPAYQNLRQ [BOD1_Y82]
6. ASIVDYNIIGW [MYH7_Y588_G584S]
7. NLVSEYQQYQD [TUBB3_Y422_D417N]
8. GEHSIYCTVNN [CD55_Y266]

[7.05, 3.38, 0.678, 0.375, 0.349, 0.605, 0.606, 5.61]

* * *

Record form. Attribute: phosphorylation enrichment. Fill in for each entry.
Tested System: Jak2 (UniProt O60674)
Sequence (O60674 whole entry, looked up): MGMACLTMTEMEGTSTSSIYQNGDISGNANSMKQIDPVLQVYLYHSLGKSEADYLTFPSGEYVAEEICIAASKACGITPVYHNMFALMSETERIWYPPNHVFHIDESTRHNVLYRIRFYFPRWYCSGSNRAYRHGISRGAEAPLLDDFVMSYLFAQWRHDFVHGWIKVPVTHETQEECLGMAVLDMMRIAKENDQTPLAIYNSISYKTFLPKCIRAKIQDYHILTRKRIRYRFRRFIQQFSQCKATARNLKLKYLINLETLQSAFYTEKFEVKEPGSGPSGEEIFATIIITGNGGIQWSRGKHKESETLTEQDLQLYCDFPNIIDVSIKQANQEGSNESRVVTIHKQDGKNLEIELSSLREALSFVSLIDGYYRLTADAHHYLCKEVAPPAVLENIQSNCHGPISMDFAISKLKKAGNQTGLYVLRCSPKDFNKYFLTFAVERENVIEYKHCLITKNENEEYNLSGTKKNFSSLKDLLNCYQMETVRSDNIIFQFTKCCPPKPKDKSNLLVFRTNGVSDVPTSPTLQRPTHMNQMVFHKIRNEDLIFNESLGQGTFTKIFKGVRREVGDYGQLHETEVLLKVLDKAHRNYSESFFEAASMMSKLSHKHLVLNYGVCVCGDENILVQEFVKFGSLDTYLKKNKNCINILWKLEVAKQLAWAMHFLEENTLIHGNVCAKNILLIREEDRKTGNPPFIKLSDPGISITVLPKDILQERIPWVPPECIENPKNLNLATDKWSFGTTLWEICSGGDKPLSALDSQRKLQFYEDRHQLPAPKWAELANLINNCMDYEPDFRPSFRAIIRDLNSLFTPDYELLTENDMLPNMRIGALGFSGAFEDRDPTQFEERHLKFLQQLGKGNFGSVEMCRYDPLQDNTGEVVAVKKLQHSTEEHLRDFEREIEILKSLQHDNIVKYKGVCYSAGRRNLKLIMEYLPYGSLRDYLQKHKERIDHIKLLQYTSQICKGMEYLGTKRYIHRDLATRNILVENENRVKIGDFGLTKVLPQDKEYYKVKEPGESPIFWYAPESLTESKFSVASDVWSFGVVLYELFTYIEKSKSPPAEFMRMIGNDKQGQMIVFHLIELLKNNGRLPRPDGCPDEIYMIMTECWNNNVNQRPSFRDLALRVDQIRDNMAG
Assay Protocol: phosphorylation enrichment, bacterial display (enrichment ratio); higher = better substrate or ligand; peptides without Tyr show the background
One number for each entry.

Before answering, review these 4 worked examples.
FSPPFYHRNCM [HGD_Y334_R330S_YF] = 0.971
CDSSGYWTPEE [PAPPA2_Y908] = 1.22
AVEDQYFCVDC [FHL1_Y207_YF] = 1.48
PINLFYLMDLS [ITGB2_Y131_D128N_YF] = 1.92

Okay, now this sequence:
Recorded phosphorylation enrichment for PLRPDYQEPSR [DDR2_Y481] with Jak2 (UniProt O60674), please?
1.02

* * *

System: c-Abl (mouse)
Assay Protocol: phosphorylation enrichment, bacterial display (enrichment ratio); higher = better substrate or ligand; peptides without Tyr show the background
Recorded Endpoint: phosphorylation enrichment
Numbers only.

LPQDGYRIVQH [PTPRT_Y1329_R1324L] = 0.716
YRAVKYLQMVG [AVPR2_Y117_C112Y] = 0.621
SRDDYYETIAM [NPY1R_Y347_D346Y] = 0.634
SDQRRYSLIDR [CLIP2_Y972] = 0.467
GIYSGYDDAWD [POLR1C_Y36_N32I] = 0.835

# batch: return phosphorylation enrichment for each of the 2 sequences below
1. NDPMEYAKQHG [ASS1_Y163_L160P]
2. HRLSTYTKMLF [CHST8_Y251]

[0.718, 1.02]

Batch: phosphorylation enrichment for all items listed.
1. KLPDAYERFIL [G6PD_Y437_L440F]
2. GDLTDYLMKIL [ACTA1_Y190_R185G]
3. KRPAVYIDEEA [EPM2A_Y304]
4. CRAVKYLQMVG [AVPR2_Y117]

1: 0.745; 2: 0.56; 3: 0.746; 4: 0.522

* * *

Tested System: EPHB1 (UniProt P54762)
Sequence (P54762 whole entry, looked up): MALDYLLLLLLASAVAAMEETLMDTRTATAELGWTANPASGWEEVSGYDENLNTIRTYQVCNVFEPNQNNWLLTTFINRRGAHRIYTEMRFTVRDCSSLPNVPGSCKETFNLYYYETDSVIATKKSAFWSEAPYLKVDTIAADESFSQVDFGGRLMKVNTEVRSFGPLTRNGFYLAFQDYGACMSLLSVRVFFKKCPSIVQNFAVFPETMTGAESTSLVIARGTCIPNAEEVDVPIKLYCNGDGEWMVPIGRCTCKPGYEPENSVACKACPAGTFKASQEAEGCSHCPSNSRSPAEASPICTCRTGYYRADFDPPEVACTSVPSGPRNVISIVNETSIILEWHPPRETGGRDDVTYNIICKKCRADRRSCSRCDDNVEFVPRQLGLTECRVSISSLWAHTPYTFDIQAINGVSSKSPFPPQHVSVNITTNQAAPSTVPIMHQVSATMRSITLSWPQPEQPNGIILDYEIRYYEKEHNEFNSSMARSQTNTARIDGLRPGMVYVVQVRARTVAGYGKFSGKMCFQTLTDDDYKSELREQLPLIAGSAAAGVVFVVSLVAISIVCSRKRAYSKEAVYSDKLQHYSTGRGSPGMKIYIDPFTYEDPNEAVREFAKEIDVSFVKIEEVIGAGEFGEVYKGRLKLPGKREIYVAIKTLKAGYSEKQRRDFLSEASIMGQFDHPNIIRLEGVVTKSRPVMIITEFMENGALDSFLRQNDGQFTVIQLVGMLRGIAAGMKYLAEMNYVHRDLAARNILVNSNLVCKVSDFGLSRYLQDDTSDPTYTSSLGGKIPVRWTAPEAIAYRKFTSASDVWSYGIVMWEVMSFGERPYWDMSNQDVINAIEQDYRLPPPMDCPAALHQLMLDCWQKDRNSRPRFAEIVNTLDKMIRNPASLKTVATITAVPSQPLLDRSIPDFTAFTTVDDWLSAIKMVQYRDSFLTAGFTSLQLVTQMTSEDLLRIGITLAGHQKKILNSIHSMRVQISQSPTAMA
Assay Protocol: phosphorylation enrichment, bacterial display (enrichment ratio); higher = better substrate or ligand; peptides without Tyr show the background
Please provide measured phosphorylation enrichment for the entries that follow.
Give bare numbers.

Some solved entries appear below for comparison.
YGSSSYGGAGG [RPA2_Y14] = 0.714
LEKISYVFMKR [SSX7_Y48_YF] = 1.65
RRAKGYPIDLY [ITGB2_Y125] = 0.684
MSRNLYSGDFF [DDR2_Y736_YF] = 7.35
IKNSGYISQFL [EIF2AK3_Y585_R588Q_YF] = 0.434

// for each sequence in input: emit phosphorylation enrichment
1. AVLSLYASGST [ACTG2_Y144_R148S]
2. TPIFPYLLPKS [PLD2_Y580_T577I_YF]
3. MKGDYYCYLAE [YWHAG_Y131_R132C]
4. LAEMNYVHRDL [EPHB1_Y740]
5. ANSPVYVPTTR [GATA6_Y188_S184N]
6. PEYVVYKPQME [CCRL2_Y170_F167Y]

0.729
0.467
5.59
0.441
0.371
2.97

* * *

Tested System: Jak2 (UniProt O60674)
Assay Protocol: phosphorylation enrichment, bacterial display (enrichment ratio); higher = better substrate or ligand; peptides without Tyr show the background
Recorded Endpoint: phosphorylation enrichment
Answers are plain numbers.

For each listed entry, give its phosphorylation enrichment.
1. RREWFYEVIIA [BACE1_Y260_V265A_YF]
2. PSAVAYPKRSQ [MARK3_Y432_V429A]
3. RGFRQDAFDGK [HLA-A_Y140_YF]
4. NTFEKYLGEEF [TF_Y669_YF]

1: 0.807; 2: 0.577; 3: 0.461; 4: 0.922

* * *

System: c-Abl (mouse)
Assay Protocol: phosphorylation enrichment, bacterial display (enrichment ratio); higher = better substrate or ligand; peptides without Tyr show the background
Recorded Endpoint: phosphorylation enrichment
Answers are plain numbers.

Previously resolved entries follow.
PESCLYKESWL [IQGAP2_Y630] = 1.46
EFQKKYSDADI [CKAP5_Y1860_K1857Q_YF] = 0.745
PDGHEYIYVDP [PDGFRA_Y572] = 2.84

Provide phosphorylation enrichment values for the following items, in order.
1. TLKVGYTEKQR [EPHA3_Y659]
2. VTRAKYFIRDE [GNAS_Y339]
3. SKHRLYSDLQT [PTCHD1_Y84]
4. QPDFLYDHIQP [TRRAP_Y862]
5. EKRDAYVSRLN [GSR_Y150]

0.369
0.458
0.476
0.928
0.423

* * *

Tested System: FGFR3 (UniProt P22607)
Sequence (P22607 whole entry, looked up): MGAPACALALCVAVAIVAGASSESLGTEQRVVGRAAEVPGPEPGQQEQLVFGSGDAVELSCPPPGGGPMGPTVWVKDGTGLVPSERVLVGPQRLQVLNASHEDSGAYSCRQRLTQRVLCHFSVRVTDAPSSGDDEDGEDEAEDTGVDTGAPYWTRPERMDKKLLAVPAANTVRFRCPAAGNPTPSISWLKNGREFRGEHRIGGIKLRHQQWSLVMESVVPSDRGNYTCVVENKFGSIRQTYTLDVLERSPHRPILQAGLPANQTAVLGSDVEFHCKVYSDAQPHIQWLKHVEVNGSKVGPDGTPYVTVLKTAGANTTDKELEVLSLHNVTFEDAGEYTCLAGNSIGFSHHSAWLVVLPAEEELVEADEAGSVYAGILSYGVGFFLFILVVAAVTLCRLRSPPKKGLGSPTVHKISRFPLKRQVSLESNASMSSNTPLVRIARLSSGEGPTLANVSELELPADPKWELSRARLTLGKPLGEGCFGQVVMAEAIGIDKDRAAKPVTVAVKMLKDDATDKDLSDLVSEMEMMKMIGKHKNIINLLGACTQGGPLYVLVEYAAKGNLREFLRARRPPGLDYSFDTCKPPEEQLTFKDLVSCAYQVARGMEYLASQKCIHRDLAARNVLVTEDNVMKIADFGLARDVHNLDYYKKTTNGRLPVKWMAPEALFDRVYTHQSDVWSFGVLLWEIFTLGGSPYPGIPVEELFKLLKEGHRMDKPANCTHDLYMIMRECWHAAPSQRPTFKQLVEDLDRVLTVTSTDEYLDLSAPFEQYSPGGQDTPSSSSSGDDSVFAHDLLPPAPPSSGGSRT
Assay Protocol: phosphorylation enrichment, bacterial display (enrichment ratio); higher = better substrate or ligand; peptides without Tyr show the background
Recorded Endpoint: phosphorylation enrichment
Answers are plain numbers.

Example sequences with recorded phosphorylation enrichment:
PDMHSYMVRFN [GRIN2D_Y732_YF] = 0.807
ALAHKYDGGGG [HBB_Y146_H147D] = 0.494
SEELHYYVQNH [UQCRC2_Y207_F208Y] = 4.09
KRFRIYHLATS [BRCA2_Y3009_YF] = 0.481
VFDMLYQLANL [USP24_Y1087] = 0.82
AVAFLYFKSIG [ADGRL4_Y301_V300L_YF] = 0.837
KLSFSYGWALQ [ALDOB_Y302_R304W] = 0.936

Dear colleague, I am looking for the recorded phosphorylation enrichment of the following sequence: RQIQSYTCEID [DES_Y331_H326R]
0.726

Source: the supplement of paper PMC10065799
